src = PubChem BioAssay AID463102

assay: selectivity of GSTO1 blockers across lysate enzymes – cell lysate, MDA-MB-435 proteome, gel ABPP, endogenous enzyme, selectivity assay for GSTO1 inhibitor project, late-stage follow-up (AID 463102); conditions: competitive gel ABPP, SE-Rh probe, measured here: total off-target bands hit, stronger effect = lower value
metric_name: anti-target hits

These recorded examples may help you get a feel for the data.
compound | metric_name | result
COc1ccc(C(C(=O)NC2CCCCC2)N(C(=O)CCl)c2cccc(Cl)c2)cc1 (stereo not given) | anti-target hits | 1
O=C(CCl)N(CCCCCNC(=O)C(F)(F)F)c1ccc([N+](=O)[O-])cc1 | anti-target hits | 1

Quick one: give me anti-target hits for each item below, same order please.
1. O=C(NC1CCCCC1)C(c1cccnc1)N(C(=O)CCl)c1ccc(C(F)(F)F)cc1 (stereo not given)
2. O=C(CCl)N(CCCNC(=O)C(F)(F)F)c1cccc(C(F)(F)F)c1
3. O=C(NC1CCCCC1)C(c1cccnc1)N(C(=O)CCl)c1ccc(Cl)cc1 (stereo not given)
4. C#CCCCCNC(=O)C(c1cccnc1)N(C(=O)CCl)c1ccc(F)cc1 (stereo not given)

1: 1; 2: 0; 3: 2; 4: 2

Quick one: give me anti-target hits for each item below, same order please.
1. O=C(NC1CCCCC1)C(c1cccnc1)N(C(=O)CCl)c1ccc(Cl)c(Cl)c1 (stereo not given)
2. Cc1ccc(N(CCCNC(=O)C(F)(F)F)C(=O)CCl)cc1
3. O=C(CCl)N1CCN(S(=O)(=O)c2ccc3ccccc3c2)CC1
4. O=C(CCl)N(CCCCNC(=O)C(F)(F)F)c1ccc([N+](=O)[O-])cc1

1: 2; 2: 0; 3: 5; 4: 0

---

test: selectivity of GSTO1 blockers across lysate enzymes – cell lysate, MDA-MB-435 proteome, gel ABPP, endogenous enzyme, selectivity assay for GSTO1 inhibitor project, late-stage follow-up (AID 463102); details: competitive gel ABPP, SE-Rh probe, measured here: total off-target bands hit, stronger effect = lower value
metric_name: anti-target hits
Answers are plain numbers.

compound | anti-target hits
C#CCCCCN(C(=O)CCl)c1ccc([N+](=O)[O-])cc1 | 0
C#CCNC(=O)C(c1ccc(OC)cc1)N(C(=O)CCl)c1cccc(Cl)c1 (stereo not given) | 1
Cc1nn(-c2ccccc2)c(Cl)c1CN(C(=O)CCl)c1ccc(Cl)cc1 | 3
COc1ccc(C(CCN(Cc2ccc(OC)c(OC)c2)C(=O)CCl)c2ccccc2)cc1 (stereo not given) | 9
COc1ccc(N(C(=O)CCl)C(C(=O)NCCc2ccccc2)c2cccs2)cc1Cl (stereo not given) | 4

Quick one: give me anti-target hits for each item below, same order please.
1. C#CCCC(=O)NCCCN(C(=O)CCl)c1ccc([N+](=O)[O-])cc1
2. C#CCN(CCCN(C(=O)CCl)c1ccc([N+](=O)[O-])cc1)C(=O)C(F)(F)F
3. O=C(NC1CCCCC1)C(c1cccnc1)N(C(=O)CCl)c1cccc(C(F)(F)F)c1 (stereo not given)
4. O=c1[nH]c(CCl)nc2cc(-c3ccc(F)cc3)sc12
5. Cc1cccc(CN2CCN(C(=O)CCl)CC2)c1

1: 0; 2: 0; 3: 2; 4: 4; 5: 2

---

molecular target: Glutathione S-transferase omega-1 (Homo sapiens); experiment: selectivity of GSTO1 blockers across lysate enzymes – cell lysate, MDA-MB-435 proteome, gel ABPP, endogenous enzyme, selectivity assay for GSTO1 inhibitor project, late-stage follow-up (AID 463102); conditions: competitive gel ABPP, SE-Rh probe, at 0.1 µM
Calls of active or inactive are those of the source.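 The calls were made as follows: active = target enzyme band signal cut by at least 80% with no off-target protein band also blocked; inactive = weaker inhibition or any off-target band blocked.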
Valid outcomes are listed here; reply with one: Y = active, N = inactive

Known results for compounds:
compound | class_assignment
COc1ccc(N(C(=O)CCl)C(C(=O)NC2CCCCC2)c2cccnc2)cc1 (stereo not given) | N
C#CCCC(=O)NCCCN(C(=O)CCl)c1ccc([N+](=O)[O-])cc1 | N
O=C(NC1CCCCC1)C(c1cccnc1)N(C(=O)CCl)c1ccc(C(F)(F)F)cc1 (stereo not given) | N
C#CCCCCNC(=O)C(c1cccnc1)N(C(=O)CCl)c1ccc(F)cc1 (stereo not given) | N
C#CCCCCN(C(=O)CCl)c1ccc([N+](=O)[O-])cc1 | N

Called result for `Cc1cccc(CN2CCN(C(=O)CCl)CC2)c1`
N

Called result for `Cc1ccc(N(CCCNC(=O)C(F)(F)F)C(=O)CCl)cc1`
N

Called result for C#CCNC(=O)C(c1ccc(OC)cc1)N(C(=O)CCl)c1ccc(Cl)cc1 (stereo not given)
N

Called result for `O=C(CCl)N(CCCCCNC(=O)C(F)(F)F)c1ccc([N+](=O)[O-])cc1`
N

Called result for `O=C(NCCCN(C(=O)CCl)c1ccc([N+](=O)[O-])cc1)c1ccccc1`
N

Called result for `O=C(CCl)N(CCCCNC(=O)C(F)(F)F)c1ccc([N+](=O)[O-])cc1`
Y

Called result for C#CCCCCNC(=O)C(c1ccc(OC)cc1)N(C(=O)CCl)c1cccc(Cl)c1 (stereo not given)
N

Called result for `CC(=O)NCCCN(C(=O)CCl)c1ccc([N+](=O)[O-])cc1`
N

Called result for COc1ccc(C(C(=O)NC2CCCCC2)N(C(=O)CCl)c2ccc(Cl)cc2)cc1 (stereo not given)
Y

Called result for COc1ccc(C(CCN(Cc2ccc(OC)c(OC)c2)C(=O)CCl)c2ccccc2)cc1 (stereo not given)
N

Called result for `O=C(CCl)N1CCN(S(=O)(=O)c2ccc3ccccc3c2)CC1`
N

Called result for O=C(NC1CCCCC1)C(c1cccnc1)N(C(=O)CCl)c1cccc(C(F)(F)F)c1 (stereo not given)
N

Called result for `Cc1nn(-c2ccccc2)c(Cl)c1CN(C(=O)CCl)c1ccc(Cl)cc1`
N

Called result for C#CCNC(=O)C(c1ccc(OC)cc1)N(C(=O)CCl)c1cccc(Cl)c1 (stereo not given)
N

Called result for O=C(NC1CCCCC1)C(c1cccnc1)N(C(=O)CCl)c1ccc(Cl)c(Cl)c1 (stereo not given)
N

Called result for `O=C(NCCCN(C(=O)CCl)c1ccc([N+](=O)[O-])cc1)c1ccc(F)cc1`
N

Called result for Cc1ccc2c(c1)c1c3n2CCN(C(=O)CCl)C3CCC1 (stereo not given)
N

---

assay: selectivity of GSTO1 blockers across lysate enzymes – cell lysate, MDA-MB-435 proteome, gel ABPP, endogenous enzyme, selectivity assay for GSTO1 inhibitor project, late-stage follow-up (AID 463102); details: competitive gel ABPP, SE-Rh probe, measured here: total off-target bands hit, stronger effect = lower value
metric_name: anti-target hits
Numbers only.

These recorded examples may help you get a feel for the data.
compound | anti-target hits
Cc1ccc2c(c1)c1c3n2CCN(C(=O)CCl)C3CCC1 (stereo not given) | 6
COc1ccc(C(C(=O)NC2CCCCC2)N(C(=O)CCl)c2ccc(Cl)cc2)cc1 (stereo not given) | 0
O=C(NCCCN(C(=O)CCl)c1ccc([N+](=O)[O-])cc1)c1ccc(F)cc1 | 2

Quick one: give me anti-target hits for each item below, same order please.
1. O=C(NC1CCCCC1)C(c1cccnc1)N(C(=O)CCl)c1ccc(F)cc1 (stereo not given)
2. O=C(CCl)N(CCCNC(=O)C(F)(F)F)c1ccccc1

1: 2; 2: 0

---

I'd appreciate it if you could supply inhibition values for the items below.
molecular target: Glutathione S-transferase omega-1 (Homo sapiens) (UniProt P78417); assay: selectivity of GSTO1 blockers across lysate enzymes – cell lysate, MDA-MB-435 proteome, gel ABPP, endogenous enzyme, selectivity assay for GSTO1 inhibitor project, late-stage follow-up (AID 463102); details: competitive gel ABPP, SE-Rh probe, GSTO1 inhibition, at 1 µM, stronger effect = higher value
Sequence (P78417 whole entry, looked up): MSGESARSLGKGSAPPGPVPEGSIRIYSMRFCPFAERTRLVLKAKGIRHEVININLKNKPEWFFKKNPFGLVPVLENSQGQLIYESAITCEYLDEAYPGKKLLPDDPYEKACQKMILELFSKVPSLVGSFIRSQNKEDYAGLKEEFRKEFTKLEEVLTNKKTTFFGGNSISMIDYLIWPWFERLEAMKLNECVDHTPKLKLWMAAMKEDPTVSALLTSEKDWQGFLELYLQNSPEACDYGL
Answers are plain numbers, in %.

These recorded examples may help you get a feel for the data.
compound | test_system | inhibition (%)
O=C(CCl)N(CCCNC(=O)C(F)(F)F)c1ccccc1 | Glutathione S-transferase omega-1 (Homo sapiens) (UniProt P78417) | 73
O=C(NCCCN(C(=O)CCl)c1ccc([N+](=O)[O-])cc1)c1ccc(F)cc1 | Glutathione S-transferase omega-1 (Homo sapiens) (UniProt P78417) | 90
C#CCCCCNC(=O)C(c1cccnc1)N(C(=O)CCl)c1ccc(F)cc1 (stereo not given) | Glutathione S-transferase omega-1 (Homo sapiens) (UniProt P78417) | 100
Cc1cccc(CN2CCN(C(=O)CCl)CC2)c1 | Glutathione S-transferase omega-1 (Homo sapiens) (UniProt P78417) | 89

Provide measured inhibition value, entry: O=C(NC1CCCCC1)C(c1cccnc1)N(C(=O)CCl)c1ccc(Cl)c(Cl)c1 (stereo not given)
100

---

I'd appreciate it if you could supply anti-target hits values for the items below.
test: selectivity of GSTO1 blockers across lysate enzymes – cell lysate, MDA-MB-435 proteome, gel ABPP, endogenous enzyme, selectivity assay for GSTO1 inhibitor project, late-stage follow-up (AID 463102); details: competitive gel ABPP, SE-Rh probe, measured here: total off-target bands hit, stronger effect = lower value
One number for each entry.

compound | metric_name | readout_number
COc1ccc(N(C(=O)CCl)C(C(=O)NC2CCCCC2)c2cccnc2)cc1 (stereo unspecified) | anti-target hits | 1
COc1ccc(N(CCCNC(=O)C(F)(F)F)C(=O)CCl)cc1 | anti-target hits | 0
C#CCNC(=O)C(c1ccc(OC)cc1)N(C(=O)CCl)c1ccc(Cl)cc1 (stereo unspecified) | anti-target hits | 0
CCCCCCCCCCN(C(=O)CCl)c1ccc([N+](=O)[O-])cc1 | anti-target hits | 6
O=C(CCl)N(CCCNC(=O)C(F)(F)F)c1ccc(Cl)cc1 | anti-target hits | 0

Quick one: give me anti-target hits for each item below, same order please.
1. O=C(NC1CCCCC1)C(c1cccnc1)N(C(=O)CCl)c1cccc(Cl)c1 (stereo unspecified)
2. O=C(NCCCN(C(=O)CCl)c1ccc([N+](=O)[O-])cc1)c1ccccc1
3. CC(=O)NCCCN(C(=O)CCl)c1ccc([N+](=O)[O-])cc1
4. O=C(CCl)N(CCCNC(=O)C(F)(F)F)c1ccc(F)cc1
5. O=S(=O)(c1ccc(Cl)cc1)N1CCC2(CC1)CO2
6. C#CCCCCNC(=O)C(c1ccc(OC)cc1)N(C(=O)CCl)c1cccc(Cl)c1 (stereo unspecified)

[2, 2, 0, 0, 0, 1]
